Reported Ki by item:
# Measurement Target: hCB1R (Homo sapiens)
# Sequence (P21554 whole entry): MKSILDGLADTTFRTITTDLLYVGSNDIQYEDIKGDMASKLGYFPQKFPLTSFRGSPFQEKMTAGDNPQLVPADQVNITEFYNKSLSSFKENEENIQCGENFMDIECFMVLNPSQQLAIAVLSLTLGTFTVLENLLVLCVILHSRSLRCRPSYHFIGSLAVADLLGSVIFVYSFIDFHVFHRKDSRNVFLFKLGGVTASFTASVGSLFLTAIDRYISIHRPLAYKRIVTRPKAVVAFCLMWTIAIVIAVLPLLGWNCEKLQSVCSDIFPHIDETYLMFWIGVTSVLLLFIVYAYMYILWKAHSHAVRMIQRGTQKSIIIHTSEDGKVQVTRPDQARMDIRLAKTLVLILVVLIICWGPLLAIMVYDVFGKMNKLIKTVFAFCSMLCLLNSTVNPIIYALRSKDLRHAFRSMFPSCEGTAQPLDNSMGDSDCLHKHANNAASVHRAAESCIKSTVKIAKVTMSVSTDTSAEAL
# Assay Info: Binding to the CB1 receptor ([3H]-SR141716A displacement)
Endpoint Name: Ki

                                   compound  endpoint_name  measured_value
0  CC1(C)C(=O)N(c2ccc(C#N)c(C(F)(F)F)c2)C(=O)N1Cc1ccccc1Cc1ccccc1 [Example 88]             Ki            2 nM
1  CC(C)(C)c1cc(N2C(=O)N(Cc3ccccc3Cc3ccccc3)C(C)(C)C2=O)ccc1C#N [Example 118]             Ki            5 nM
2  CC1(C)C(=O)N(c2ccc(C#N)c(C(F)(F)F)c2)C(=O)N1Cc1ccc(C(=O)c2ccccc2)cc1 [Example 132]             Ki           74 nM
3  CC1(C)C(=O)N(c2ccc(F)c(C(F)(F)F)c2)C(=O)N1Cc1ccccc1Cc1ccccc1 [Example 79]             Ki           44 nM
4  N#Cc1ccc(N2C(=O)N(Cc3ccccc3Cc3ccccc3)C3(CCC3)C2=O)cc1C(F)(F)F [Example 107]             Ki           12 nM
5  N#Cc1ccc(N2C(=O)N(Cc3ccccc3Cc3ccccc3)C3(CCCC3)C2=O)cc1C(F)(F)F [Example 106]             Ki           11 nM

Where do these numbers come from? They come from patent US20110112097A1.
